All figures here come from patent US5840684A.

test system: Staphylococcus aureus 447; experiment: broth micro-dilution MIC; format: cell-based
Assay endpoint: log10(MIC) (log10 of the value in µg/mL)

INSERT INTO results (molecule, reported_value) VALUES
  ('CCCCCCCCCOc1ccc(CNC2(C)CC(OC3C(Oc4c5cc6cc4Oc4ccc(cc4Cl)C(OC4CC(C)(N)C(O)C(C)O4)C4NC(=O)C(NC(=O)C6NC(=O)C(CC(N)=O)NC(=O)C(NC(=O)C(CC(C)C)NC)C(O)c6ccc(c(Cl)c6)O5)c5ccc(O)c(c5)-c5c(O)cc(O)cc5C(C(=O)O)NC4=O)OC(CO)C(O)C3O)OC(C)C2O)cc1 (stereo not drawn)', 0.90),
  ('CNC(CC(C)C)C(=O)NC1C(=O)NC(CC(N)=O)C(=O)NC2C(=O)NC3C(=O)NC(C(=O)NC(C(=O)O)c4cc(O)cc(O)c4-c4cc3ccc4O)C(OC3CC(C)(N)C(O)C(C)O3)c3ccc(c(Cl)c3)Oc3cc2cc(c3OC2OC(CO)C(O)C(O)C2OC2CC(C)(NCc3ccc(O)cc3)C(O)C(C)O2)Oc2ccc(cc2Cl)C1O (stereo not drawn)', 0.30),
  ('CNC(CC(C)C)C(=O)NC1C(=O)NC(CC(N)=O)C(=O)NC2C(=O)NC3C(=O)NC(C(=O)NC(C(=O)O)c4cc(O)cc(O)c4-c4cc3ccc4O)C(OC3CC(C)(N)C(O)C(C)O3)c3ccc(c(Cl)c3)Oc3cc2cc(c3OC2OC(CO)C(O)C(O)C2OC2CC(C)(NCCCC3CCCC3)C(O)C(C)O2)Oc2ccc(cc2Cl)C1O (stereo not drawn)', 0.00),
  ('CNC(CC(C)C)C(=O)NC1C(=O)NC(CC(N)=O)C(=O)NC2C(=O)NC3C(=O)NC(C(=O)NC(C(=O)O)c4cc(O)cc(O)c4-c4cc3ccc4O)C(OC3CC(C)(N)C(O)C(C)O3)c3ccc(c(Cl)c3)Oc3cc2cc(c3OC2OC(CO)C(O)C(O)C2OC2CC(C)(NCc3ccc(OCCCc4ccccc4)cc3)C(O)C(C)O2)Oc2ccc(cc2Cl)C1O (stereo not drawn)', -0.30),
  ('CNC(CC(C)C)C(=O)NC1C(=O)NC(CC(N)=O)C(=O)NC2C(=O)NC3C(=O)NC(C(=O)NC(C(=O)O)c4cc(O)cc(O)c4-c4cc3ccc4O)C(OC3CC(C)(N)C(O)C(C)O3)c3ccc(c(Cl)c3)Oc3cc2cc(c3OC2OC(CO)C(O)C(O)C2OC2CC(C)(NCc3ccc(OCCC4CCCCC4)cc3)C(O)C(C)O2)Oc2ccc(cc2Cl)C1O (stereo not drawn)', 0.30),
  ('C=CCCCOc1ccc(CNC2(C)CC(OC3C(Oc4c5cc6cc4Oc4ccc(cc4Cl)C(OC4CC(C)(N)C(O)C(C)O4)C4NC(=O)C(NC(=O)C6NC(=O)C(CC(N)=O)NC(=O)C(NC(=O)C(CC(C)C)NC)C(O)c6ccc(c(Cl)c6)O5)c5ccc(O)c(c5)-c5c(O)cc(O)cc5C(C(=O)O)NC4=O)OC(CO)C(O)C3O)OC(C)C2O)cc1 (stereo not drawn)', -0.30),
  ('CC(C)CC(C(=O)NC1C(=O)NC(CC(N)=O)C(=O)NC2C(=O)NC3C(=O)NC(C(=O)NC(C(=O)O)c4cc(O)cc(O)c4-c4cc3ccc4O)C(OC3CC(C)(N)C(O)C(C)O3)c3ccc(c(Cl)c3)Oc3cc2cc(c3OC2OC(CO)C(O)C(O)C2OC2CC(C)(NCc3ccc(Cc4ccccc4)cc3)C(O)C(C)O2)Oc2ccc(cc2Cl)C1O)N(C)Cc1ccc(Cc2ccccc2)cc1 (stereo not drawn)', -0.30),
  ('CNC(CC(C)C)C(=O)NC1C(=O)NC(CC(N)=O)C(=O)NC2C(=O)NC3C(=O)NC(C(=O)NC(C(=O)O)c4cc(O)cc(O)c4-c4cc3ccc4O)C(OC3CC(C)(N)C(O)C(C)O3)c3ccc(c(Cl)c3)Oc3cc2cc(c3OC2OC(CO)C(O)C(O)C2OC2CC(C)(NCc3ccc(-c4ccc(C(F)(F)F)cc4)cc3)C(O)C(C)O2)Oc2ccc(cc2Cl)C1O (stereo not drawn)', 0.00),
  ('CNC(CC(C)C)C(=O)NC1C(=O)NC(CC(N)=O)C(=O)NC2C(=O)NC3C(=O)NC(C(=O)NC(C(=O)O)c4cc(O)cc(O)c4-c4cc3ccc4O)C(OC3CC(C)(N)C(O)C(C)O3)c3ccc(c(Cl)c3)Oc3cc2cc(c3OC2OC(CO)C(O)C(O)C2OC2CC(C)(NCc3ccc(OC(F)(F)C(F)F)cc3)C(O)C(C)O2)Oc2ccc(cc2Cl)C1O (stereo not drawn)', -0.30),
  ('CNC(CC(C)C)C(=O)NC1C(=O)NC(CC(N)=O)C(=O)NC2C(=O)NC3C(=O)NC(C(=O)NC(C(=O)O)c4cc(O)cc(O)c4-c4cc3ccc4O)C(OC3CC(C)(N)C(O)C(C)O3)c3ccc(c(Cl)c3)Oc3cc2cc(c3OC2OC(CO)C(O)C(O)C2OC2CC(C)(NCc3cccc(Oc4cccc(C(F)(F)F)c4)c3)C(O)C(C)O2)Oc2ccc(cc2Cl)C1O (stereo not drawn) [Compound 203]', 0.00),
  ('CNC(CC(C)C)C(=O)NC1C(=O)NC(CC(N)=O)C(=O)NC2C(=O)NC3C(=O)NC(C(=O)NC(C(=O)O)c4cc(O)cc(O)c4-c4cc3ccc4O)C(OC3CC(C)(N)C(O)C(C)O3)c3ccc(c(Cl)c3)Oc3cc2cc(c3OC2OC(CO)C(O)C(O)C2OC2CC(C)(NCc3c(OC)ccc4ccccc34)C(O)C(C)O2)Oc2ccc(cc2Cl)C1O (stereo not drawn)', 0.60),
  ('CCCOC(c1ccccc1)c1ccc(CNC2(C)CC(OC3C(Oc4c5cc6cc4Oc4ccc(cc4Cl)C(OC4CC(C)(N)C(O)C(C)O4)C4NC(=O)C(NC(=O)C6NC(=O)C(CC(N)=O)NC(=O)C(NC(=O)C(CC(C)C)NC)C(O)c6ccc(c(Cl)c6)O5)c5ccc(O)c(c5)-c5c(O)cc(O)cc5C(C(=O)O)NC4=O)OC(CO)C(O)C3O)OC(C)C2O)cc1 (stereo not drawn)', 0.00);

----------
Each item that follows carries a reported mean geometric MIC, Vancomycin Resistant Strains.
test system: vancomycin-resistant enterococci; experiment: broth micro-dilution, mean geometric MIC; assay type: cell-based, Enterococcus faecium and Enterococcus faecalis; conditions: enterococci, 24-hour incubation
Assay endpoint: mean geometric MIC, Vancomycin Resistant Strains (µg/mL)

INSERT INTO measurements (compound, reported_value) VALUES
  ('C=CCCCCCCCCCNC1(C)CC(OC2C(Oc3c4cc5cc3Oc3ccc(cc3Cl)C(OC3CC(C)(N)C(O)C(C)O3)C3NC(=O)C(NC(=O)C5NC(=O)C(CC(N)=O)NC(=O)C(NC(=O)C(CC(C)C)NC)C(O)c5ccc(c(Cl)c5)O4)c4ccc(O)c(c4)-c4c(O)cc(O)cc4C(C(=O)O)NC3=O)OC(CO)C(O)C2O)OC(C)C1O (stereo not drawn)', 0.71),
  ('CNC(CC(C)C)C(=O)NC1C(=O)NC(CC(N)=O)C(=O)NC2C(=O)NC3C(=O)NC(C(=O)NC(C(=O)O)c4cc(O)cc(O)c4-c4cc3ccc4O)C(OC3CC(C)(NCc4ccc(SC)cc4)C(O)C(C)O3)c3ccc(c(Cl)c3)Oc3cc2cc(c3OC2OC(CO)C(O)C(O)C2OC2CC(C)(NCc3ccc(SC)cc3)C(O)C(C)O2)Oc2ccc(cc2Cl)C1O (stereo not drawn)', 8),
  ('CNC(CC(C)C)C(=O)NC1C(=O)NC(CC(N)=O)C(=O)NC2C(=O)NC3C(=O)NC(C(=O)NC(C(=O)O)c4cc(O)cc(O)c4-c4cc3ccc4O)C(OC3CC(C)(N)C(O)C(C)O3)c3ccc(c(Cl)c3)Oc3cc2cc(c3OC2OC(CO)C(O)C(O)C2OC2CC(C)(NCc3c(C)c(C)c(C)c(C)c3C)C(O)C(C)O2)Oc2ccc(cc2Cl)C1O (stereo not drawn)', 11);

----------
Each item that follows carries a reported mean geometric MIC, Vancomycin Sensitive Strains.
test system: vancomycin-susceptible enterococci; assay: broth micro-dilution, mean geometric MIC; assay type: cell-based, Enterococcus faecium and Enterococcus faecalis; conditions: enterococci, 24-hour incubation
Assay endpoint: mean geometric MIC, Vancomycin Sensitive Strains (µg/mL)

INSERT INTO results (molecule, display_unit, reported_value) VALUES
  ('CNC(CC(C)C)C(=O)NC1C(=O)NC(CC(N)=O)C(=O)NC2C(=O)NC3C(=O)NC(C(=O)NC(C(=O)O)c4cc(O)cc(O)c4-c4cc3ccc4O)C(OC3CC(C)(N)C(O)C(C)O3)c3ccc(c(Cl)c3)Oc3cc2cc(c3OC2OC(CO)C(O)C(O)C2OC2CC(C)(NCc3cccc4c([N+](=O)[O-])cccc34)C(O)C(C)O2)Oc2ccc(cc2Cl)C1O (stereo not drawn)', 'µg/mL', 0.22),
  ('CNC(CC(C)C)C(=O)NC1C(=O)NC(CC(N)=O)C(=O)NC2C(=O)NC3C(=O)NC(C(=O)NC(C(=O)O)c4cc(O)cc(O)c4-c4cc3ccc4O)C(OC3CC(C)(N)C(O)C(C)O3)c3ccc(c(Cl)c3)Oc3cc2cc(c3OC2OC(CO)C(O)C(O)C2OC2CC(C)(NCc3ccc(Oc4ccccc4Cl)c([N+](=O)[O-])c3)C(O)C(C)O2)Oc2ccc(cc2Cl)C1O (stereo not drawn)', 'µg/mL', 0.055),
  ('CNC(CC(C)C)C(=O)NC1C(=O)NC(CC(N)=O)C(=O)NC2C(=O)NC3C(=O)NC(C(=O)NC(C(=O)O)c4cc(O)cc(O)c4-c4cc3ccc4O)C(OC3CC(C)(N)C(O)C(C)O3)c3ccc(c(Cl)c3)Oc3cc2cc(c3OC2OC(CO)C(O)C(O)C2OC2CC(C)(NCc3cccc(Oc4ccc(Cl)cc4)c3)C(O)C(C)O2)Oc2ccc(cc2Cl)C1O (stereo not drawn)', 'µg/mL', 0.036);
